Assay comment: AUC (0 to infinity) in Sprague-Dawley rat at 2 mg/kg, iv by LC-MS/MS analysis
Type: ADME, organism-based
Details: in vivo
Test readout: AUC(0-inf) (ng·h/mL)
Answers are plain numbers, in ng·h/mL.

Given the compound CCC(C)n1cc(-c2nc(NC3CCN(S(=O)(=O)C4CC4)CC3)ncc2F)cc(F)c1=O (stereo unspecified) , write its reported AUC(0-inf).
1480

###

Assay comment: Half life in Sprague-Dawley rat at 2 mg/kg, iv by LC-MS/MS analysis
Type: ADME, organism-based
Details: in vivo
Test readout: half-life (min)
One number for each entry, in min.

Given the compound CCC(C)n1cc(-c2nc(NC3CCN(S(=O)(=O)C4CC4)CC3)ncc2F)cc(F)c1=O (stereo unspecified) , write its reported half-life.
55.8

###

Assay comment: Clearance in Sprague-Dawley rat at 20 mg/kg, po by LC-MS/MS analysis
Type: ADME, organism-based
Details: in vivo
Test readout: CL/F (mL/min/kg)
Give bare numbers, in mL/min/kg.

Given the compound CCC(C)n1cc(-c2nc(NC3CCN(S(=O)(=O)C4CC4)CC3)ncc2F)cc(F)c1=O (stereo unspecified) , write its reported CL/F.
29.2

###

Assay comment: AUC (0 to infinity) in Sprague-Dawley rat at 20 mg/kg, po by LC-MS/MS analysis
Assay type: ADME, organism-based
Details: in vivo
Test readout: AUC(0-inf) (ng·h/mL)
One number for each entry, in ng·h/mL.

Given the molecule CCC(C)n1cc(-c2nc(NC3CCN(S(=O)(=O)C4CC4)CC3)ncc2F)cc(F)c1=O (stereo unspecified) , write its reported AUC(0-inf).
11800

###

Could you please report measured IC50 for the items listed next?
Experimental system: Cyclin-dependent kinase 2/cyclin E1 (Homo sapiens)
Assay comment: Inhibition of CDK2/Cyclin E1 (unknown origin) pre-incubated for 10 mins followed by ATP/substrate addition and measured after 60 mins by ADP-Glo assay
One number for each entry, in nM.

Answered cases to consult:
CCS(=O)(=O)N1CCC(Nc2ncc(F)c(-c3cc(F)c(=O)n(C(C)C)c3)n2)CC1 :: 6
CCCS(=O)(=O)N1CCC(Nc2ncc(F)c(-c3ccc(=O)n(C(C)C)c3)n2)CC1 :: 7
CC(C)Oc1ncc(-c2nc(NC3CCN(S(=O)(=O)C(C)C)CC3)ncc2F)cc1F :: 216
CCS(=O)(=O)N1CCC(Nc2ncc(F)c(-c3cnc(OC(C)C)c(F)c3)n2)CC1 :: 113
Cc1nc(OC(C)C)ccc1-c1nc(NC2CCN(S(C)(=O)=O)CC2)ncc1F :: 297

Each compound below has a reported value. Please supply its IC50.
1. COCCS(=O)(=O)N1CCC(Nc2ncc(F)c(-c3ccc(=O)n(C(C)C)c3)n2)CC1
2. CCCCn1cc(-c2nc(NC3CCN(S(C)(=O)=O)CC3)ncc2F)cc(F)c1=O
3. CC(C)n1cc(-c2nc(NC3CCN(C(=O)OC(C)(C)C)CC3)ncc2F)ccc1=O
4. CC(C)Oc1ncc(-c2nc(NC3CCN(S(C)(=O)=O)CC3)ncc2F)cc1C(=O)O
5. CC(C)n1cc(-c2nc(NC3CCN(S(C)(=O)=O)CC3)ncc2F)ccc1=O
6. CC(C)Oc1ccc(-c2nc(NC3CCN(S(C)(=O)=O)CC3)ncc2F)cn1
7. CCC(C)n1cc(-c2nc(NC3CCN(S(=O)(=O)CC)CC3)ncc2F)cc(F)c1=O (stereo not given)

[10, 13, 139, 656, 7, 93, 7]

Each compound below has a reported value. Please supply its IC50.
1. Cn1cc(-c2nc(NC3CCN(S(C)(=O)=O)CC3)ncc2F)cc(F)c1=O
2. CC(C)Cn1cc(-c2nc(NC3CCN(S(C)(=O)=O)CC3)ncc2F)cc(F)c1=O

1. 70
2. 12

Given the compound CC(C)n1cc(-c2nc(NC3CCN(S(=O)(=O)C(F)(F)F)CC3)ncc2F)ccc1=O , write its reported IC50.
42

###

Experimental system: CDK1/Cyclin A (Homo sapiens, UniProt P06493)
Sequence (P06493 whole entry): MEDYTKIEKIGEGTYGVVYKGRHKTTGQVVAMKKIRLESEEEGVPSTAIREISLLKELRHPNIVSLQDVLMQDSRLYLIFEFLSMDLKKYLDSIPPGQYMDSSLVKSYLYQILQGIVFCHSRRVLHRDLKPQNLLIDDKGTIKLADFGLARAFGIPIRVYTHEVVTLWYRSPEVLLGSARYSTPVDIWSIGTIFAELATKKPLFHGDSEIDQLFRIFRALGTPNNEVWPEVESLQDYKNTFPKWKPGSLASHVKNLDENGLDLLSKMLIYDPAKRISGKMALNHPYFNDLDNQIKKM
Sequence (P20248 whole entry, further chain): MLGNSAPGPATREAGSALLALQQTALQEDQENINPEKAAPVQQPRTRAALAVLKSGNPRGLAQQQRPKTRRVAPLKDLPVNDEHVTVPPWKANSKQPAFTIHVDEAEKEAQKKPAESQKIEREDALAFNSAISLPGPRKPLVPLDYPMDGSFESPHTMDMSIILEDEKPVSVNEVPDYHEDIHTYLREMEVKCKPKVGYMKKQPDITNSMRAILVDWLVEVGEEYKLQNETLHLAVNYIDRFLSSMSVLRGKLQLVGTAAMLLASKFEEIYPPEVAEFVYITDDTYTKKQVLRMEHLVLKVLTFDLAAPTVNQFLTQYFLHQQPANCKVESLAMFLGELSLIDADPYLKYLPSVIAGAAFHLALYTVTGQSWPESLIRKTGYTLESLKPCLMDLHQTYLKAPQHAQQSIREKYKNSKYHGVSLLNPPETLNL
Assay comment: Inhibition of CDK1/Cyclin A2 (unknown origin) pre-incubated for 10 mins followed by ATP/substrate addition and measured after 60 mins by ADP-Glo assay
Test readout: IC50 (nM)
Numbers only, in nM.

Given the molecule CCC(C)n1cc(-c2nc(NC3CCN(S(=O)(=O)C4CC4)CC3)ncc2F)cc(F)c1=O (stereo unspecified) , write its reported IC50.
15

###

Assay comment: Tmax in Sprague-Dawley rat at 20 mg/kg, po by LC-MS/MS analysis
Format: ADME, organism-based
Details: in vivo
Test readout: Tmax

Given the compound CCC(C)n1cc(-c2nc(NC3CCN(S(=O)(=O)C4CC4)CC3)ncc2F)cc(F)c1=O (stereo unspecified) , write its reported Tmax.
30 min

###

Assay comment: Cmax in Sprague-Dawley rat at 20 mg/kg, po by LC-MS/MS analysis
Assay type: ADME, organism-based
Details: in vivo
Test readout: Cmax (ng/mL)
One number for each entry, in ng/mL.

Given the compound CCC(C)n1cc(-c2nc(NC3CCN(S(=O)(=O)C4CC4)CC3)ncc2F)cc(F)c1=O (stereo unspecified) , write its reported Cmax.
2130

###

Experimental system: Cyclin-dependent kinase 4/cyclin D1 (Homo sapiens)
Sequence (P11802 whole entry): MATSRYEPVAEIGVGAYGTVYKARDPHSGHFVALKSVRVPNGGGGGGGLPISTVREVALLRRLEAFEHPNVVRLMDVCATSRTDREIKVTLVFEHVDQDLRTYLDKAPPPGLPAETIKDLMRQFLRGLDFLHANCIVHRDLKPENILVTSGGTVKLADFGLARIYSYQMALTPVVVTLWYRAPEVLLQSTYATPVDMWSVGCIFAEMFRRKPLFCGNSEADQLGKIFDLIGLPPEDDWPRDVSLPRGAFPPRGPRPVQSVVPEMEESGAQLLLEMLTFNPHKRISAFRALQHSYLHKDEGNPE
Sequence (P24385 whole entry, further chain): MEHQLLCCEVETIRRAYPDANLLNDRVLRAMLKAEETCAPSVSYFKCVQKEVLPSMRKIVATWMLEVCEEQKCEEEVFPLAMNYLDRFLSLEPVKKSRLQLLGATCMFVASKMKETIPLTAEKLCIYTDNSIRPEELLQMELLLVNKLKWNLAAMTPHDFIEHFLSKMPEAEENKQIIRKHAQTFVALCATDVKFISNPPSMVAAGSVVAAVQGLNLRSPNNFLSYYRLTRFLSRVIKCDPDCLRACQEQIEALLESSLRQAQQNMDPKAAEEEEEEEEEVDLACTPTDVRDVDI
Assay comment: Inhibition of CDK4/Cyclin D1 (unknown origin) pre-incubated for 10 mins followed by ATP/substrate addition and measured after 60 mins by ADP-Glo assay
Test readout: IC50 (nM)
Answers are plain numbers, in nM.

Given the compound CCC(C)n1cc(-c2nc(NC3CCN(S(=O)(=O)C4CC4)CC3)ncc2F)cc(F)c1=O (stereo unspecified) , write its reported IC50.
103

###

Could you please report measured IC50 for the items listed next?
Experimental system: Cyclin-dependent kinase 2/cyclin E1 (Homo sapiens, UniProt P24941)
Assay comment: Inhibition of CDK2/Cyclin E1 (unknown origin) pre-incubated for 10 mins followed by ATP/substrate addition and measured after 60 mins by ADP-Glo assay
Give bare numbers, in nM.

CCC(C)n1cc(-c2nc(NC3CCN(S(C)(=O)=O)CC3)ncc2F)cc(F)c1=O (stereo not given) :: 3

Each compound below has a reported value. Please supply its IC50.
1. CC(C)Oc1ncc(-c2nc(NC3CCN(S(C)(=O)=O)CC3)ncc2F)cc1F
2. COCCS(=O)(=O)N1CCC(Nc2ncc(F)c(-c3cnc(OC(C)C)c(F)c3)n2)CC1
3. COc1cnc(NC2CCN(S(C)(=O)=O)CC2)nc1-c1cnc(OC(C)C)c(F)c1
4. CC(C)n1cc(-c2nc(NC3CCN(S(C)(=O)=O)CC3)ncc2F)cc(F)c1=O

73
124
341
4

###

Assay comment: Antiproliferative activity against Palbociclib-resistance human MCF7 cells assessed as cell growth inhibition
Type: functional, cell-based, Palbociclib-resistant MCF7 cell
Test readout: IC50 (µM)
One number for each entry, in µM.

CC(=O)c1c(C)c2cnc(Nc3ccc(N4CCNCC4)cn3)nc2n(C2CCCC2)c1=O [PALBOCICLIB] :: 13.8

Let's switch to this molecule now.
Given the molecule CCC(C)n1cc(-c2nc(NC3CCN(S(=O)(=O)C4CC4)CC3)ncc2F)cc(F)c1=O (configuration not stated) , write its reported IC50.
0.954

###

Assay comment: MRT (0 to infinity) in Sprague-Dawley rat at 2 mg/kg, iv by LC-MS/MS analysis
Type: ADME, organism-based
Details: in vivo
Test readout: MRT inf (min)
Answers are plain numbers, in min.

Given the molecule CCC(C)n1cc(-c2nc(NC3CCN(S(=O)(=O)C4CC4)CC3)ncc2F)cc(F)c1=O (stereo unspecified) , write its reported MRT inf.
49.2

###

Assay comment: MRT (0 to infinity) in Sprague-Dawley rat at 20 mg/kg, po by LC-MS/MS analysis
Assay type: ADME, organism-based
Details: in vivo
Test readout: MRT inf (h)
Answers are plain numbers, in h.

Given the compound CCC(C)n1cc(-c2nc(NC3CCN(S(=O)(=O)C4CC4)CC3)ncc2F)cc(F)c1=O (stereo unspecified) , write its reported MRT inf.
6.7

###

Experimental system: Cyclin-dependent kinase 2/cyclin E1 (Homo sapiens)
Assay comment: Inhibition of CDK2/Cyclin E1 (unknown origin) pre-incubated for 10 mins followed by ATP/substrate addition and measured after 60 mins by ADP-Glo assay
Could you please report measured IC50 for the items listed next?
Numbers only, in nM.

Answered cases to consult:
CCCS(=O)(=O)N1CCC(Nc2ncc(F)c(-c3cnc(OC(C)C)c(F)c3)n2)CC1 :: 130
CC(C)n1cc(-c2nc(NC3CCN(S(=O)(=O)C(C)C)CC3)ncc2F)cc(F)c1=O :: 8
CC(C)n1cc(-c2nc(NC3CCN(S(=O)(=O)C4CC4)CC3)ncc2F)cc(F)c1=O :: 5
COCCS(=O)(=O)N1CCC(Nc2ncc(F)c(-c3cc(F)c(=O)n(C(C)C)c3)n2)CC1 :: 7
CC(C)Oc1ncc(-c2ccnc(NC3CCN(S(C)(=O)=O)CC3)n2)cc1F :: 810
CCn1cc(-c2nc(NC3CCN(S(C)(=O)=O)CC3)ncc2F)cc(F)c1=O :: 23
CC(C)=CCn1cc(-c2nc(NC3CCN(S(C)(=O)=O)CC3)ncc2F)cc(F)c1=O :: 15
CCC(C)n1cc(-c2nc(NC3CCN(S(=O)(=O)C4CC4)CC3)ncc2F)cc(F)c1=O (stereo not given) :: 0.9

Each molecule below has a reported value. Please supply its IC50.
1. CCC(C)n1cc(-c2nc(NC3CCN(S(=O)(=O)CCOC)CC3)ncc2F)cc(F)c1=O (stereo not given)
2. Cc1cc(-c2nc(NC3CCN(S(C)(=O)=O)CC3)ncc2F)cn(C(C)C)c1=O
3. CCCS(=O)(=O)N1CCC(Nc2ncc(F)c(-c3cc(F)c(=O)n(C(C)C)c3)n2)CC1
4. Cc1cc(-c2nc(NC3CCN(S(C)(=O)=O)CC3)ncc2F)cnc1OC(C)C

[5, 222, 5, 166]

Each molecule below has a reported value. Please supply its IC50.
1. CC(=O)N1CCC(Nc2ncc(F)c(-c3ccc(=O)n(C(C)C)c3)n2)CC1
2. CC(C)n1cc(-c2nc(NC3CCN(S(=O)(=O)C(C)C)CC3)ncc2F)ccc1=O

1. 63
2. 16
